- study system: RSV prefusion F (preF), DS-Cav1 (Respiratory Syncytial Virus, UniProt P03420 26-513)
- assay remarks: BLI, IgG on anti-human IgG sensor, 100 nM antigen, 1:1 fit
For each entry below, report its pKd value.
Notebook: values listed as pKd are -log10 of the concentration (mol/L).

Task: State, in one line, measured pKd of ADI-41480 (antibody, V domains shown) VH: EVQLLESGPGLVRPSGTLSLTCTVSGDSISGSNWWAWVRQPPGRRLEWIGEIYYRGATDYNSSLKSRVIISVDNSKNQFSLNLRSVTAADTAIYYCARVEKFATSGYYISYFDYWGQGTLVTVSS VL: DIRVTQSPSSLSASVGDRVTITCRASQSISTYLNWYQHNPGKAPKLLIYAASSLQSGVPSRFSGSGSGTHFTLTISSLQPADFSTYYCQQSYSSPWTFGQGTKVEIK
Output: 8.36

Task: State, in one line, measured pKd of ADI-41543 (antibody, V domains shown) VH: QVQLVQSGAEVKKPGASVRVSCKASGYTLTGYYIHWLRQAPGQGLEWVGRINPNTGETSYSQKFQGRVIMTRDTSVSTAYVDLSRLRSRDTAVYFCARSDVMITVTAEGDFSYYYYRFDVWGQGTTVTVSS VL: DIVMTQTPLSLPVTPGEPASISCRSSQSLLHSNGHNYLDWYLQKPGQSPQLLIYLGSIRASGVSDRFSGSGSGTDFTLKISRVEAEDVGIYYCMQALQTPHFGGGTKVEIK
Output: 8.54

Task: State, in one line, measured pKd of ADI-41497 (antibody, V domains shown) VH: QVQLVESGGGVVQPGRSLRLSCAASGFTFSNHAMHWVRQAPGKGLEWLSFISYDGGVNFYRDSVKGRFTISRDNSKNTLYLQMSSLRPEDTAVYYCARDRVGRVVGASYYLDYWGRGALVTVSS VL: QSVVTQPPSVSVAPGQTASITCGGKHIGSKSVHWYQQKPGQSPVLVVHDDSDRPSGILERFSGSNSGNTATLTINRVEAGDEADYYCQVWDNASDHPYVFGPGTKVTVL
Output: 8.84

Task: State, in one line, measured pKd of ADI-41474 (antibody, V domains shown, also called Ab 757; Antibody Number 757) VH: QVQLVQSGAEVKRPGASVKVSCKISGYTFTSHYIHWLRQAPGQGLEWMGWINPNTGDTKYEQKFQGRVTMTRDTSLSTAYMELRRLRSDDTAVYYCARDSFYAANGYYFVWFDPWGQGALVTVSS VL: DIQMTQSPTSLSASVGDRVTITCRASQSISSYLNWYQQKPGKAPRFLIYAASSLQSGVPSRFRGSGSGTDFTLTISSLQPEDFATYYCQQSYSSPYTFGQGTKVEIK
Output: 7.75

Task: State, in one line, measured pKd of ADI-41469 (antibody, V domains shown) VH: EVQLVESGGGVVQPGRSLRLSCAASGFTFSSYGMHWVRQAPGKGLEWVAVISYDGSFIKYADSMMGRFTISRDNSKNTLYLQMSSLRPEDTATYYCAKDALIPEYWGQGTLVTVSS VL: QPVLTQPASVSGSPGQSITISCTGTSSDVGGYNYVSWYQKHPDKAPRVIIYEVSNRPSGVSNRFSGSKSGNTASLTISGLQAEDEADYYCCSYTSTSGVVFGGGTKLTVL
Output: 9.55

Task: State, in one line, measured pKd of ADI-41456 (antibody, V domains shown, also called Ab 740; Antibody Number 740) VH: EVQLLESGGGLFHPGGSLTLSCVASGFTLSTYYMHWVRQAPGKGLVWVARINSDGGYTTYADSVKGRFTVSRDNAKNTLYLQMNSLRVEDTAVYYCAREWVEFDSWGQGTLVTVSS VL: NFMLTQPHSVSASPGKTVTISCTRSSGNIASNYVQWYQQRPGSSPTTVITEDNQRPSGVPDRFSGSIDSSSNSASLTISGLKTEDEADYYCQSYDSSTYVFGTGTKLTVL
Output: 8.83

Task: State, in one line, measured pKd of ADI-41541 (antibody, V domains shown, also called Ab 813; Antibody Number 813) VH: QITLKESGPTLVKPTQTLTLTCTFSGFSLSSSGVGVGWIRQPPGKALEWLALIYWDDDKRYSPSLKSRLTITKDTSKNQVVLTMTNMDPVDTATYYCAHRGPYYYDMSGYYYEAFDIWGQGTTVTVSS VL: SYELMQPPSVSVAPGQTARITCGGNNIGSKGVHWYQQKPGQAPVLVVYDDNDRPSGIPERFSGSNSGNTATLTISRVEAGDEADYYCQVWDSSSDHHYVFGTGTKVTVL
Output: 8.61

Task: State, in one line, measured pKd of ADI-41473 (antibody, V domains shown) VH: QVQLVQSGPGLVKPSQTLSLTCAISGDSVSSNSAAWSWIRQSPSRGLEWLGRTYYRSKWYYDHAVSVEGRITINADTSKNHFSLQLNSVTPEDTAVYYCARDPDSGNYFHYYGMDVWGQGTTVTVSS VL: ETTLTQSPATLSLSPGERATLSCRTSQSVSSYLAWYQQKPGQAPRLLIYDASRRATGIPARFSGSGSGTHFTLTITSLEPEDFAVYYCQQRSKWPPYSFGQGTKVDIK
Output: 7.90

Task: State, in one line, measured pKd of ADI-41499 (antibody, V domains shown) VH: EVQLVESGGVVVQPGGSLRLSCAASGFSFDDYTMYWVRQAPEKGLEWISLISWNGGVTYYPDSVKGRFTVSRDNNKNSLYLQMDSLRPEDSAFYYCAKESLESSGHFLDYWGQGTLVTVSS VL: QPVLTQSRSVSGSPGQSVTISCIGTNSDVGGYHYVSWFQHHPGKAPKLMIYDVSRRPSGVPARFSGSKSGNTASLSISGLRAEDEADYYCCSFAGTYTPYVFGTGTKLTVL
Output: 8.70

Task: State, in one line, measured pKd of ADI-43646 (antibody, V domains shown) VH: EMQLMQSGGVVVQPGGSLRLSCAASGFTFDDYAMHWVRQAPGKGLEWVSLISWDGGSTYYADSVKGRFTISRDNSKNSLYLQMNSLRAEDTALYYCAKDFDPLVVPAAMCFDYWGQGTLVTVSS VL: QSVLIQPASVSGSPGQSITISCTGTSSDVGGYNYVSWYQQHPGKAPKLMIYDVSNRPSGVSNRFSGSKSGNTASLTISGLQAEDEADYYCSSYTSSSTLYVFGTGTKLTVL
Output: 8.27
